Hi there, I'd appreciate the recorded pIC50 for every entry that follows.
System: HT-29
Procedure summary: Cytotoxicity against human HT-29 cells assessed as cell viability after 24 hrs by MTT assay
Format: functional, cell-based
Conditions: HT-29, 24 h
Notebook: values listed as pIC50 are -log10 of the concentration (mol/L).

Look up pIC50 for this compound: COc1ccc(-c2nc3ccc(-c4ccccc4)cn3c2Nc2c(C)cccc2C)cc1OC
5.07

Another: COc1ccc(-c2nc3ccc(Br)cn3c2Nc2c(C)cccc2C)cc1OC
5.04

Another: COc1ccc(-c2nc3ccc(C)cn3c2Nc2c(C)cccc2C)c(OC)c1
5.00

Another: NC(=O)c1ccc2nc(-c3ccc(OCc4ccccc4)cc3OCc3ccccc3)c(NC3CCCCC3)n2c1
5.04

Another: CC[C@@]1(O)C(=O)OCc2c1cc1n(c2=O)Cc2cc3ccccc3nc2-1
5.00

Another: COc1ccc(-c2nc3ccc(C)cn3c2Nc2c(C)cccc2C)cc1OC
4.89
